Tested on: tyrosine hydroxylase (TH) protein
TEST: Induction of tyrosine hydroxylase (TH) in LC, SN and VTA of the mouse brain
Format: in vivo, Balb/C mouse
CONDITION DETAILS: ventral tegmental area, single i.p. injection, relative to mean value of control group
Marks after values point to notes of the source that are not given here.
PROPERTY LABEL: TH induction in the VTA

[ask] Form field: reported TH induction in the VTA of CN1CCC=C(C(=O)Nn2ccc3ccccc32)C1
[reply] 125%

[ask] Form field: reported TH induction in the VTA of CN1CCC=C(C(=O)NN2CCc3ccccc32)C1
[reply] 88* %

[ask] Form field: reported TH induction in the VTA of CN1CCC=C(C(=O)Nn2ccc3cc(F)ccc32)C1
[reply] 94%

[ask] Form field: reported TH induction in the VTA of C=CCN1CCCC(C(=O)Nn2ccc3cc(Cl)ccc32)C1 (stereo not shown)
[reply] 95%

---

SYSTEM: 5HT receptors (type 5HT2A) (Homo sapiens, UniProt P28223)
Sequence (P28223 whole entry): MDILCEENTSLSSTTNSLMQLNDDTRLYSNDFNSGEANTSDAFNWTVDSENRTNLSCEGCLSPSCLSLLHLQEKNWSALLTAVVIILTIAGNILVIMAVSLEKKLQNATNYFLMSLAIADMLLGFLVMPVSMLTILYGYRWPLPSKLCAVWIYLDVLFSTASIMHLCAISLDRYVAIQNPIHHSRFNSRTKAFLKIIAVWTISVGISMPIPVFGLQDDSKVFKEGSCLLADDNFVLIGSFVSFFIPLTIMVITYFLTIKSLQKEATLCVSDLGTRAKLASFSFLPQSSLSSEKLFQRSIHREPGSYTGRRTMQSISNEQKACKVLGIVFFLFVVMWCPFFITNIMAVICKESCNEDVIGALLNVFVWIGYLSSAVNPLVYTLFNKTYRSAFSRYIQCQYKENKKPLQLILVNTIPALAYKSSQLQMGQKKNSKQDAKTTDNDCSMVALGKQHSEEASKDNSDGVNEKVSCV
TEST: Affinity for receptors, displacement of labelled specific ligand: 5HT2A
Type: binding
CONDITION DETAILS: concentration 10^−5 M
PROPERTY LABEL: inhibition at 10 µM

Reference set, count: 2
CN1CCC=C(C(=O)Nn2ccc3ccccc32)C1 [Example 1] : < 10%
CN1CCC=C(C(=O)Nn2ccc3cc(F)ccc32)C1 [Example 7] : < 10%

Now for a further compound.
[ask] So what inhibition at 10 µM did C=CCN1CCCC(C(=O)Nn2ccc3cc(Cl)ccc32)C1 (stereo not drawn) [Example 12] get with 5HT receptors (type 5HT2A) (Homo sapiens, UniProt P28223)?
[reply] < 10%

---

SYSTEM: 5HT receptors (type 5HT2A) (Homo sapiens, UniProt P28223)
TEST: Affinity for receptors, displacement of labelled specific ligand: 5HT2A
Assay type: binding
CONDITION DETAILS: concentration 10^−7 M
PROPERTY LABEL: inhibition at 0.1 µM

Reference set, count: 2
C=CCN1CCCC(C(=O)Nn2ccc3cc(Cl)ccc32)C1 (stereo not drawn) : < 10%
CN1CCC=C(C(=O)Nn2ccc3cc(F)ccc32)C1 : < 10%

Now for a further compound.
[ask] Form field: reported inhibition at 0.1 µM of CN1CCC=C(C(=O)Nn2ccc3ccccc32)C1
[reply] < 10%

Values compiled from patent US20090258883A1.
